systemTested: human GPR84 receptor (Homo sapiens)
Construct: host or cells: HEK293, transient transfection
Sequence (Q9NQS5 whole entry): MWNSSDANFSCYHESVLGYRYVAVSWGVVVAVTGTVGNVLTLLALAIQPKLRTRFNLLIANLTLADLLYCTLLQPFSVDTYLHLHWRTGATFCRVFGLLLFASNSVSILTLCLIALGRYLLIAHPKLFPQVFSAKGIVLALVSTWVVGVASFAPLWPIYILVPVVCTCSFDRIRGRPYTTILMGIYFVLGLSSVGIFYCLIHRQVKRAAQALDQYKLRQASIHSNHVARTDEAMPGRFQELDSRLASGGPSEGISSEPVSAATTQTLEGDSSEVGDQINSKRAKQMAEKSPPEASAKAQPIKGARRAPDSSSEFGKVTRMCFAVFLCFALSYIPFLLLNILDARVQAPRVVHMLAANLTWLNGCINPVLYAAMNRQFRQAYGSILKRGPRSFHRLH
assayDetails: Gαi biosensor BRET assay in HEK293 cells (antagonism of ZQ-16)
Assay type: cell-based
settings: HEK293, single concentration 10 μM (designated F)
# maps each entry to its inhibition at 10 µM
metric: inhibition at 10 µM

>  <molecule>
COCCn1cc(-c2ccc(C#CC3CC3)cc2C)nn1 [Compound I-104]

>  <metric>
inhibition at 10 µM

>  <resultValue>
≤ 25%

$$$$
>  <molecule>
Cc1cc(N2CC(Nc3cnn(C)c3)C2)ccc1-c1cn(CC2CCCCO2)nn1 (stereo not shown) [Compound I-541]

>  <metric>
inhibition at 10 µM

>  <resultValue>
25 to 50%

$$$$
>  <molecule>
Cc1cc(C#CC2CC2)ccc1-n1nc(OC[C@H]2COCCO2)oc1=O [Compound I-13]

>  <metric>
inhibition at 10 µM

>  <resultValue>
25 to 50%

$$$$
>  <molecule>
Cc1cc(C#CC2CC2)ccc1-c1cn(CC2CCCCS2)nn1 (stereo not shown) [Compound I-258]

>  <metric>
inhibition at 10 µM

>  <resultValue>
50 to 75%

$$$$
>  <molecule>
Cc1cc(C#CC2CC2)ccc1-c1cn(Cc2ncco2)nn1 [Compound I-143]

>  <metric>
inhibition at 10 µM

>  <resultValue>
≤ 25%

$$$$
>  <molecule>
Cc1cc(C#CC2CC2)ccc1-c1ncn(CC2CCCCO2)c1C (stereo not shown) [Compound I-339]

>  <metric>
inhibition at 10 µM

>  <resultValue>
25 to 50%

$$$$
>  <molecule>
CC(C)c1cc(C#CCN2CC(C)(C)C2)cnc1-c1cn(CC2CCCCO2)nn1 (stereo not shown) [Compound I-462]

>  <metric>
inhibition at 10 µM

>  <resultValue>
> 75%

$$$$
>  <molecule>
Cc1cc(N2CCN(C(=O)c3ccccc3)CC2)ccc1-c1cn(CC2CCCCO2)nn1 (stereo not shown) [Compound I-236]

>  <metric>
inhibition at 10 µM

>  <resultValue>
50 to 75%

$$$$
>  <molecule>
Cc1cc(C2CCOCC2)ccc1-c1cn(CC2CCCCO2)nn1 (stereo not shown) [Compound I-485]

>  <metric>
inhibition at 10 µM

>  <resultValue>
≤ 25%

$$$$
>  <molecule>
CNCc1cc(C#CC2CC2)ccc1-c1cn(CC2CCCCO2)nn1 (stereo not shown) [Compound I-355]

>  <metric>
inhibition at 10 µM

>  <resultValue>
50 to 75%

$$$$
>  <molecule>
C(#CC1CC1)c1ccc2c(c1)CCc1cn(CC3CCCCO3)nc1-2 (stereo not shown) [Compound I-328]

>  <metric>
inhibition at 10 µM

>  <resultValue>
≤ 25%

$$$$
>  <molecule>
Cc1cc(N2CCN(Cc3ccccn3)CC2)ccc1-c1cn(CC2OCC3(CC3)CO2)cn1 [Compound I-795]

>  <metric>
inhibition at 10 µM

>  <resultValue>
25 to 50%

$$$$
>  <molecule>
CC(c1cncc(C#CC2CC2)c1)c1cn(CC2CCCCO2)nn1 (stereo not shown) [Compound I-426]

>  <metric>
inhibition at 10 µM

>  <resultValue>
25 to 50%

$$$$
>  <molecule>
Cc1cc(N2CCN(Cc3ccnn3C)CC2)ccc1-c1cn(CC2CCCCO2)nn1 (stereo not shown) [Compound I-581]

>  <metric>
inhibition at 10 µM

>  <resultValue>
≤ 25%

$$$$
>  <molecule>
Cc1cc(N2CC(NS(C)(=O)=O)C2)ccc1-c1cn(CC2CCCCO2)nn1 (stereo not shown) [Compound I-486]

>  <metric>
inhibition at 10 µM

>  <resultValue>
≤ 25%

$$$$
>  <molecule>
Cc1ccc(-c2ccc(-c3cn(C[C@H]4CCCCO4)nn3)nc2)cn1 [Compound I-32]

>  <metric>
inhibition at 10 µM

>  <resultValue>
≤ 25%

$$$$
>  <molecule>
CC(C)Oc1cc(N2CC(C)(C)C2)cnc1-c1cn(CC2CCCCO2)nn1 (stereo not shown) [Compound I-630]

>  <metric>
inhibition at 10 µM

>  <resultValue>
> 75%

$$$$
>  <molecule>
Cc1cc(N2CC(N(C)C)C2)ccc1-c1cn(CC2CCCCO2)nn1 (stereo not shown) [Compound I-114]

>  <metric>
inhibition at 10 µM

>  <resultValue>
≤ 25%

$$$$
>  <molecule>
Cc1cc(C#CC2CC2)ccc1-c1nn(C[C@H]2CCCCO2)nc1C [Compound I-345]

>  <metric>
inhibition at 10 µM

>  <resultValue>
≤ 25%

$$$$
>  <molecule>
Cc1ccc(C#N)cc1N(C)c1cn(CC2OCC(C)(C)CO2)nn1 [Compound I-811]

>  <metric>
inhibition at 10 µM

>  <resultValue>
≤ 25%

$$$$
>  <molecule>
CCc1cc(C#CCNc2cccnc2)cnc1-c1cn(C[C@H]2CCCCO2)nn1 [Compound I-535]

>  <metric>
inhibition at 10 µM

>  <resultValue>
> 75%

$$$$
>  <molecule>
Cc1cc(OC2CN3CCC2CC3)ccc1-c1cn(CC2CCCCO2)nn1 (stereo not shown) [Compound I-465]

>  <metric>
inhibition at 10 µM

>  <resultValue>
≤ 25%

$$$$
